Values were extracted from the supplement of paper PMC9112550.

Assign shrunken log2 fold change to each entry below.
Test system: Escherichia coli TOP10
test.details: shrunken log2 fold change of peptide-encoding DNA abundance (4.5 h post-induction vs induction); higher = less antimicrobial activity (less host growth inhibition)
recorded.conditions: time post-induction: 4.5 h; library: site-saturation at positions 5, 18, 19, 20
Give bare numbers.

Known shrunken log2 fold change results, listed for orientation:
RRIRCRPPRLPRPRPRPIKTPRP; -0.0653
RRIRTRPPRLPRPRPRPQSTPRP; -0.236
RRIRTRPPRLPRPRPRPMEFPRP; -0.0956
RRIRKRPPRLPRPRPRPALIPRP; 0.2
RRIRARPPRLPRPRPRPNLDPRP; -0.152
RRIRLRPPRLPRPRPRPITKPRP; 0.00247
RRIRPRPPRLPRPRPRPVTLPRP; 0.527

Proceed to the following item.
q: Input RRIRMRPPRLPRPRPRPINSPRP , output reported shrunken log2 fold change.
a: -0.142

* * *

Tested on: Escherichia coli TOP10
test.details: shrunken log2 fold change of peptide-encoding DNA abundance (4.5 h post-induction vs induction); higher = less antimicrobial activity (less host growth inhibition)
recorded.conditions: time post-induction: 4.5 h; library: site-saturation at positions 5, 18, 19, 20
I would appreciate it if you labelled entries yes (1) when shrunken log2 fold change is -0.04 or higher, otherwise no (0).

q: Would you say RRIRERPPRLPRPRPRPDAEPRP shows shrunken log2 fold change at minimum -0.04?
a: yes (1)

* * *

Test system: Escherichia coli TOP10;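 note: peptides expressed intracellularly from a pBAD plasmid library in pooled LB shake-flask culture, induced with 0.3% L-arabinose, DNA abundance read by NGS, three biological replicates, DESeq2 with apeglm shrinkage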
test.details: shrunken log2 fold change of peptide-encoding DNA abundance (4.5 h post-induction vs induction); higher = less antimicrobial activity (less host growth inhibition)
recorded.conditions: time post-induction: 4.5 h; library: site-saturation at positions 5, 18, 19, 20
Output y for shrunken log2 fold change not less than 0.05; output n otherwise.

Consider the following illustrative entries.
RRIRIRPPRLPRPRPRPLWRPRP; y
RRIRFRPPRLPRPRPRPHFMPRP; n
RRIRERPPRLPRPRPRPPGNPRP; y

q: Can RRIRKRPPRLPRPRPRPDPRPRP be said to have shrunken log2 fold change at or above 0.05?
a: y

q: Confirm if shrunken log2 fold change reported for the sequence RRIRERPPRLPRPRPRPWVLPRP is 0.05 or above.
a: n

q: Form field: shrunken log2 fold change at least 0.05? Entry: RRIRVRPPRLPRPRPRPHGQPRP
a: n

q: // inclusive: shrunken log2 fold change at least 0.05? input: RRIRHRPPRLPRPRPRPSDGPRP
a: n

q: Record RRIRVRPPRLPRPRPRPAQCPRP ; criterion: shrunken log2 fold change no lower than 0.05. Met?
a: n

q: Exam item: decide whether the reported shrunken log2 fold change for RRIRMRPPRLPRPRPRPADEPRP is at least 0.05.
a: n

q: Could you tell me if the measured shrunken log2 fold change of RRIRDRPPRLPRPRPRPQVPPRP reaches 0.05 or more?
a: n

q: API: above_or_equal(metric=shrunken log2 fold change, cutoff=0.05) for item RRIRDRPPRLPRPRPRPIRMPRP
a: n

q: In plain terms: is recorded shrunken log2 fold change at least 0.05 for RRIRDRPPRLPRPRPRPDSIPRP ?
a: y

q: # check: shrunken log2 fold change of RRIRIRPPRLPRPRPRPVDNPRP is greater than or equal to 0.05
a: n

q: Could you verify whether the entry RRIRGRPPRLPRPRPRPGMNPRP shows shrunken log2 fold change of no less than 0.05?
a: y

q: Check this sequence for shrunken log2 fold change at or above 0.05: RRIRQRPPRLPRPRPRPQTSPRP
a: y

q: Determine whether this sequence has shrunken log2 fold change no lower than 0.05: RRIRDRPPRLPRPRPRPRRCPRP
a: y

q: shrunken log2 fold change >= 0.05 for RRIRWRPPRLPRPRPRPFEPPRP ?
a: y

q: Reported shrunken log2 fold change reaches at least 0.05 for RRIRARPPRLPRPRPRPLKHPRP ?
a: n

q: Please indicate if the recorded shrunken log2 fold change for RRIRDRPPRLPRPRPRPANEPRP meets or exceeds 0.05.
a: y

q: Dear colleague, could you confirm whether RRIRWRPPRLPRPRPRPNHSPRP has shrunken log2 fold change at or above 0.05?
a: n

q: Given the entry RRIRLRPPRLPRPRPRPTQFPRP , answer whether its shrunken log2 fold change meets or surpasses 0.05.
a: y

q: In plain terms: is recorded shrunken log2 fold change at least 0.05 for RRIRGRPPRLPRPRPRPLMQPRP ?
a: y

q: Evaluate RRIRTRPPRLPRPRPRPAHPPRP : shrunken log2 fold change at minimum 0.05?
a: y

q: # bool: shrunken log2 fold change of RRIRKRPPRLPRPRPRPCHTPRP >= 0.05
a: n
